# EC50 per entry
study-system: hTAAR1 (Homo sapiens)
Sequence (Q96RJ0 whole entry): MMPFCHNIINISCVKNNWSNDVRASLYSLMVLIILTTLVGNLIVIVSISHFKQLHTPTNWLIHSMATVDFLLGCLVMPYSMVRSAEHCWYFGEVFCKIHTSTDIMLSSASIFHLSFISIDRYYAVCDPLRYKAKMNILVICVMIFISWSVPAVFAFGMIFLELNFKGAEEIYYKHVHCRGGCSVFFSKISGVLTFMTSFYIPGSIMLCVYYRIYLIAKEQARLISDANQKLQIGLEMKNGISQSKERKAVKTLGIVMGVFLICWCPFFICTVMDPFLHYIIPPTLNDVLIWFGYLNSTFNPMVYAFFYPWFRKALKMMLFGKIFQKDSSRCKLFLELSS
test-name: hTAAR1 functional assay (cAMP)
condition-description: read-out: hTAAR1 EC50 (mean ± SEM (n))
Give the number; nM is assumed, so skip it.

Known results for compounds:
| compound | EC50 (nM) |
| --- | --- |
| NC1CCc2cc(NC(=O)c3ccnc(C(F)(F)F)c3)ccc2C1 (stereo not drawn) | 163 |
| CCN(CC1COC(N)=N1)c1ccccc1 (stereo not drawn) [drawing 40] | 92 |

# context switch: different compound, same EC50
# lookup: EC50 of Clc1ccc(Nc2ccc(C3CNCCO3)nc2)cc1 (stereo not drawn) 123
